- Tested on: CpomOR6a
- Measurement Protocol: Single sensillum recordings, CpomOR6a expressed in Drosophila at1 OSNs
- Assay type: cell-based, Cydia pomonella
- Applied Conditions: replicate 5; 10 μg per stimulus
- Excerpt: To perform heterologous expression in D. melanogaster OSNs, CpomORs were amplified using primers in Table 2 and purified PCR products were cloned into the PCR8/GW/TOPO plasmid (Invitrogen) following the recommended protocol. Cassettes with inserts were then transferred from their PCR8/GW/TOPO plasmids to the destination vector (pUASg-HA.attB, constructed by E. Furger and J. Bischof, kindly provided by the Basler group, Zürich), using the Gateway LR Clonase II kit (Invitrogen). […]
Parameter Measured: Spike/s (Spike/s)
Please give a number only; it is taken to be in Spike/s.

# count of solved cases: 2
• C/C=C/C=C/CCCCCCCOC(C)=O [codlemone acetate, (E,E)-8,10-dodecadien-1-yl acetate] = 80
• CCCCC/C=C\C=C\C(=O)OCC [(E,Z)-ED, ethyl-(E,Z)-2,4-decadienoate] = -14

// next item, Spike/s requested
Task item: # return recorded Spike/s for input C/C=C/C=C\CCCCCCCOC(C)=O [(Z,E)-8,10:12Ac, (Z,E)-8,10-dodecadien-1yl acetate]
Reply: 0

* * *

# reported Spike/s; entries follow
- Tested on: CpomOR6a
- Measurement Protocol: Single sensillum recordings, CpomOR6a expressed in Drosophila at1 OSNs
- Type: cell-based, Cydia pomonella
- Applied Conditions: replicate 9; 10 μg per stimulus
Enter your answer as a number in Spike/s; do not include the unit.

* C/C=C\C=C\CCCCCCCOC(C)=O [(E,Z)-8,10:12Ac, (E,Z)-8,10-dodecadien-1yl acetate] | 2
* CCC/C=C\CCCCCCCOC(C)=O [(Z)-8:12Ac, (Z)-8-dodecadien-1yl acetate] | -8
* CCCCC/C=C\C=C\C(=O)OCC [(E,Z)-ED, ethyl-(E,Z)-2,4-decadienoate] | 14

Consider the additional molecule presented here.
Task item: Look up Spike/s of C/C=C/C=C/CCCCCCCO [codlemone, (E,E)-8,10-dodecadien-1-ol] and report it.
Reply: 2

* * *

- Tested on: CpomOR6a
- Measurement Protocol: Single sensillum recordings, CpomOR6a expressed in Drosophila at1 OSNs
- Type: cell-based, Cydia pomonella
- Applied Conditions: replicate 9; 10 μg per stimulus
Measured Spike/s accompanies every entry in the list below.
Express your answer in Spike/s, writing the number without its unit.

• C/C=C\CCCCCCCCCOC(C)=O [(Z)-10:12Ac, (Z)-10-dodecadien-1-yl acetate] = 4
• C/C=C/C=C\CCCCCCCOC(C)=O [(Z,E)-8,10:12Ac, (Z,E)-8,10-dodecadien-1yl acetate] = 10
• C/C=C\C=C/CCCCCCCOC(C)=O [(Z,Z)-8,10:12Ac, (Z,Z)-8,10-dodecadien-1yl acetate] = 12
• CCC/C=C/CCCCCCCOC(C)=O [(E)-8:12Ac, (E)-8-dodecadien-1-yl acetate] = 10
• C/C=C/CCCCCCCCCOC(C)=O [(E)-10:12Ac, (E)-10-dodecadien-1-yl acetate] = 26

Now for a further compound.
Task item: Annotate the compound C/C=C/C=C/CCCCCCCOC(C)=O [codlemone acetate, (E,E)-8,10-dodecadien-1-yl acetate] with its measured Spike/s.
Reply: 58

* * *

- Target System: CpomOrco + OR3 (Cydia pomonella)
- Sequence (H9A5M3 1-426): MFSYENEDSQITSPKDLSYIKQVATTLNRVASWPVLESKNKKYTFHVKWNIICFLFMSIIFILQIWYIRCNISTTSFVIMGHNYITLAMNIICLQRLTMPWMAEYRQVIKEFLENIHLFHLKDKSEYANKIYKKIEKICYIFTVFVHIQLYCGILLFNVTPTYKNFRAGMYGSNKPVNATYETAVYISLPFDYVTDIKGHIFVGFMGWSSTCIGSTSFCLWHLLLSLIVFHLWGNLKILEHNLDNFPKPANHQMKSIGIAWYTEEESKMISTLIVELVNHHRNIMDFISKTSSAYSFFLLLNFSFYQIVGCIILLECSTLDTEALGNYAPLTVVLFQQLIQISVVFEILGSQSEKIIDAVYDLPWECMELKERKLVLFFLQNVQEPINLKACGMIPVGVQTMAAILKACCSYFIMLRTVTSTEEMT
- Sequence (H9A5M2 1-473 partner): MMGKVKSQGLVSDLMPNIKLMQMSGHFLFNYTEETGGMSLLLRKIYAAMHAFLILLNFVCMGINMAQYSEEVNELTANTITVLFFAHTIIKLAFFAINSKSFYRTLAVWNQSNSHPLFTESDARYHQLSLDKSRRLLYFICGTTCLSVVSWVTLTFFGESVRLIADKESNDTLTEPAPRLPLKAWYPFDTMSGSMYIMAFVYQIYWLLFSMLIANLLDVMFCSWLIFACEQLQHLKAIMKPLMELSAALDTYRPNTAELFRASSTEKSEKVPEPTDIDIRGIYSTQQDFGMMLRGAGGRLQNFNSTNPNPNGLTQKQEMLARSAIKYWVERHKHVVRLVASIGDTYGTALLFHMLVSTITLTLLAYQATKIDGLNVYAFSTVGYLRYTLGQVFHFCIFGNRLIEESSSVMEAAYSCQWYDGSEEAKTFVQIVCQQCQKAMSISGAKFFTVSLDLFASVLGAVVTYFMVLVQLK
- Measurement Protocol: Calcium imaging of HEK293T cells expressing CpomOrco + OR3
- Applied Conditions: calcium response normalized to 250 μM VUAA3
Parameter Measured: pEC50
pEC50 (log units): -log10 of the concentration in mol/L.

* CCCCC/C=C\C=C\C(=O)OC [(E,Z)-MD, methyl (E,Z)-2,4-decadienoate] | 2.97

Field: next molecule
Task item: Under CpomOrco + OR3 (Cydia pomonella), report pEC50 for CCCCC/C=C\C=C\C(=O)OCC [(E,Z)-ED, ethyl-(E,Z)-2,4-decadienoate]
Reply: 3.34

Taken from paper PMC5259778.
